Source of measurements: patent US20200140532A1

- EXPERIMENTAL_SYSTEM: recombinant cynomolgus Aggrecan G1-IGD-G2 (cynomolgus)
- EXPERIMENT: periplasmic extract ELISA
PARAMETER: OD 450 nm

{"BINDER": "C0101PMP117D05 (VHH, not shown: large carriers) VHH: KVQLVESGGGLVQAGGSLRLSCAASRRTFNMMGWFRQAPGKEREFVAYITWNGGDTRYAESVKGRFTVSRDDVKNTMALQMNRLDPLDTAVYYCGVRIHGSNWSTKADDYDNWGQGTQVTVSS", "PARAMETER": "OD 450 nm", "TEST_VALUE": "2.12 OD 450 nm"}

The binder identified as C0101PMP604G09 (VHH, not shown: large carriers) VHH: DVQLVESGGGLVQPGGSLRLSCVASGRTFSSYAMGWFRQAPGKEREFVAAITWSSATTYYADSVKGRFTISRDNSKNTVYLQMNSLRPEDTAVYYCAAARIPVGRRSENWDYWGQGTLVTVSS registered its OD 450 nm at 1.57 OD 450 nm

The recorded OD 450 nm for C0101PMP115B08 (VHH, not shown: large carriers) VHH: KVQLVESGGGLVQPGGSLRLSCAASGFTFSMYAMKWVRQAPGKGLEWVSGINSSGGRTNYAGSVKGRFTISRDNAKNTLYLQMNSLKPEDTAVYYCATDFLGGRNSRGQGTQVTVSS is 1.18 OD 450 nm
